- Test system: PT immobilized on Streptavidin beads
Measure: target binding to PT in the presence of AP process fluids
Sequence (P04977 35-269 limits assumed): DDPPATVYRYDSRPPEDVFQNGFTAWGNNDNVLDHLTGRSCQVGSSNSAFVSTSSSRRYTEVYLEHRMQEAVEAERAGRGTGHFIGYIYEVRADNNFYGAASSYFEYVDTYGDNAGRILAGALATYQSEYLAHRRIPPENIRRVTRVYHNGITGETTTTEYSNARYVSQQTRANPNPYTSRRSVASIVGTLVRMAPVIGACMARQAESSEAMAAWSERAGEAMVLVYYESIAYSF
Sequence (P04978 28-226 limits assumed, further chain): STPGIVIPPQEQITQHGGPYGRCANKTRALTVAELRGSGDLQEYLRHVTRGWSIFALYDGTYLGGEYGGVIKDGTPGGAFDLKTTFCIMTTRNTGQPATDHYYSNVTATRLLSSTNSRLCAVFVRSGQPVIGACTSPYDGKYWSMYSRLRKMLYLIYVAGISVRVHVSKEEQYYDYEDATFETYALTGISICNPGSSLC
Sequence (P04979 29-227 limits assumed, further chain): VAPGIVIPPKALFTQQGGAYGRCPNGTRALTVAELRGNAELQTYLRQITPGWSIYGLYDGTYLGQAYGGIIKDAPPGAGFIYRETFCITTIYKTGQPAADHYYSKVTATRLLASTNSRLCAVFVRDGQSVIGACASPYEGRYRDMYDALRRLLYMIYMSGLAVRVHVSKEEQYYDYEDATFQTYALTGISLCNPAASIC
Sequence (P0A3R5 43-152 limits assumed, further chain): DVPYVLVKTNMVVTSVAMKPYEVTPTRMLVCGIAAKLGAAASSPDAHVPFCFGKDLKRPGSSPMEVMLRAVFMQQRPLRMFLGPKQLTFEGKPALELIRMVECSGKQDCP
Sequence (P04981 35-133 limits assumed, further chain): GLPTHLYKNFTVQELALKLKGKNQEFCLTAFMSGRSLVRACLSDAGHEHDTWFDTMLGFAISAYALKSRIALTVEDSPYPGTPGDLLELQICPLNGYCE

Answered cases to consult:
INSERT INTO assay_data (seq_text, test_result) VALUES
  ('MHHHHHHSGSSSGSGCVKKDELCELAVDECCEPLECFQMGHGFKRCGSGSSGSS [gurmarin variant 10]', 'not influenced'),
  ('MHHHHHHSGSSSGSGCVKKDELCARWDLVCCEPLECIYTSELYATCGSGSSGSS [gurmarin variant 9]', 'not influenced'),
  ('MGRGSHHHHHHARSTMNTNRMDIQRLMTNHVKRDSSPGSIDANAPKASAI [PP26 variant 6]', 'not reduced'),
  ('MHHHHHHSGSSSGSGCVKKDELCELAVDECCEPLECTKGDLGFRKCGSGSSGSS [gurmarin variant 19]', 'not influenced'),
  ('MGRGSHHHHHHARSNVIPLNEVWYDTGWDRPHRSRLSIDDDANAPKASAI [PP26 variant 9]', 'not reduced');

Could you now look at the following sequence, please?
Summary for this sequence, MGRGSHHHHHHARSSHCRHRNCHTITRGNMRIETPNNIRKDANAPKASAI [PP26 variant 5] : target binding to PT in the presence of AP process fluids is not reduced

* * *

- Test system: PT
- Assay: estimation of peptides binding capacity (fraction of binding active peptide)
- Parameters: species or system Bordetella pertussis
- Condition Description: 20 pmol sepharose-immobilized peptide, 100 pmol PT (500 nM); 1:1 binding assumed
Measure: Fraction of binding active peptide

Summary for this sequence, RSWRDTRKLHMRHYFPLAIDSYWDHTLRDA [pp26 15n] : Fraction of binding active peptide is >12.5%

Summary for this sequence, SGCVKKDELCARWDLVCCEPLECIYTSELYATCG [gurmarin 9n] : Fraction of binding active peptide is >12.5%

Summary for this sequence, RSSHCRHRNCHTITRGNMRIETPNNIRKDA [pp26 5n] : Fraction of binding active peptide is > 5%

Summary for this sequence, SGCVKKDELCELAVDECCEPLECFQMGHGFKRCG [gurmarin 10n] : Fraction of binding active peptide is > 5%
